Where these numbers come from: the supplement of paper PMC6607015

Test system: HeLa MZ
Assay: whole-cell filipin (free cholesterol) integrated intensity, Z-score; higher = more cholesterol staining
Settings: compound concentration in added solution (µM; 5 µl added to 20 µl cells): 10; 18 h
Counter-ions that a name gives are not always drawn.
measurementLabel: whole-cell filipin (z-score)
Respond with the number and no other words.

# example entries with known answers
Prompt line: Kindly indicate its recorded whole-cell filipin (z-score). Item: O=C1c2c(O)cccc2Cc2cccc(O)c21 [Anthralin]
Response line: 2.01

Prompt line: Complete the entry with whole-cell filipin (z-score) for COc1ccc(CCN(C)CCCC(C#N)(c2ccc(OC)c(OC)c2)C(C)C)cc1OC (centres undefined) [Verapamil hydrochloride]
Response line: 0.413

Prompt line: Output whole-cell filipin (z-score) of CCN(CC)CC#CCOC(=O)C(O)(c1ccccc1)C1CCCCC1 (centres undefined) [Oxybutynin chloride]
Response line: 0.613

Prompt line: Answer with the recorded whole-cell filipin (z-score) of CC(C(=O)O)c1ccc(N2Cc3ccccc3C2=O)cc1 (centres undefined) [Indoprofen] only.
Response line: 0.103

Prompt line: Identify the reported whole-cell filipin (z-score) for the following entry. O=C(Cn1ccnc1[N+](=O)[O-])NCCO [Etanidazole]
Response line: 0.609

Prompt line: Annotate the compound CCCCC1C(=O)N(c2ccccc2)N(c2ccccc2)C1=O [Phenylbutazone] with its measured whole-cell filipin (z-score).
Response line: 0.231

Others:
Prompt line: For the compound COc1cc(NS(=O)(=O)c2ccc(N)cc2)ncn1 [Sulfamonomethoxine] , give its reported whole-cell filipin (z-score).
Response line: 0.0403

Prompt line: Identify measured whole-cell filipin (z-score) corresponding to CN(C)/N=N/c1[nH]cnc1C(N)=O [Dacarbazine]
Response line: -0.976

Prompt line: Tell me whole-cell filipin (z-score) reported for CC[N+](CC)(CC)CCC(O)(c1ccccc1)C1CCCCC1 (centres undefined) [Tridihexethyl chloride]
Response line: -0.512

###

Test system: A431
Experiment: whole-cell filipin (free cholesterol) integrated intensity, Z-score; higher = more cholesterol staining
Conditions: compound concentration in added solution (µM; 5 µl added to 20 µl cells): 10; 18 h
Where a name gives a salt, the structure may show the parent alone.
measurementLabel: whole-cell filipin (z-score)
The reply should be a number, written without any unit.

Prompt line: Jot down whole-cell filipin (z-score) (A431) of `CNC[C@H](O)[C@@H](O)[C@H](O)[C@H](O)CO` .
Response line: -0.386

Prompt line: Report the value of whole-cell filipin (z-score) obtained on A431 for CC(=O)CC(c1ccc([N+](=O)[O-])cc1)c1c(O)c2ccccc2oc1=O (centres undefined) .
Response line: -0.704

Prompt line: // fetch whole-cell filipin (z-score) for Nc1ccc(S(=O)(=O)NC(=O)c2ccccc2)cc1 [Sulfabenzamide] ; system: A431
Response line: -0.453

Prompt line: Write down measured whole-cell filipin (z-score) (A431) for this compound. O=C(c1ccccc1)c1ccc2n1CCC2C(=O)O (centres undefined)
Response line: -0.702

Prompt line: Recall the reported whole-cell filipin (z-score) of CN(C)c1ccc(O)c2c1C[C@H]1C[C@H]3[C@H](N(C)C)C(O)=C(C(N)=O)C(=O)[C@@]3(O)C(O)=C1C2=O [Minocycline hydrochloride] when tested on A431.
Response line: -1.01

###

Test system: HeLa MZ
Experiment: filipin (cholesterol) integrated intensity within LBPA endosomes, Z-score; higher = more cholesterol in LBPA endosomes
Settings: compound concentration in added solution (µM; 5 µl added to 20 µl cells): 10; 18 h
Counter-ions that a name gives are not always drawn.
# filipin (z-score) >= -0.5 gives Condition met, anything below gives Condition not met

Prompt line: Record COc1ccc2cc([C@H](C)C(=O)O)ccc2c1 [Naproxen] ; criterion: filipin (z-score) no lower than -0.5. Met?
Response line: Condition not met

New cases:
Prompt line: Quick check: does CC(C)NCC(O)COc1ccc(COCCOC(C)C)cc1 (stereo not drawn) [Bisoprolol fumarate] have filipin (z-score) greater than or equal to -0.5?
Response line: Condition met

Prompt line: Given C[N+]1(CCCCC[N+]2(C)CCCC2)CCCC1 [Pentolinium bitartrate] , state whether its filipin (z-score) is at least -0.5.
Response line: Condition met

Prompt line: Entry CC(C)(C)NCC(O)COc1cccc2c1CC(O)C(O)C2 (stereo not drawn) [Nadolol] : is its filipin (z-score) no less than -0.5?
Response line: Condition met

Prompt line: Given the entry CO/N=C(\C(=O)N[C@@H]1C(=O)N2C(C(=O)O)=C(COC(C)=O)CS[C@H]12)c1csc(N)n1 [Cefotaxime sodium salt] , answer whether its filipin (z-score) meets or surpasses -0.5.
Response line: Condition not met

Prompt line: hey, is filipin (z-score) for this one >= -0.5? CNC[C@H](O)[C@@H](O)[C@H](O)[C@H](O)CO [Meglumine]
Response line: Condition not met

Prompt line: Does CN(C)CCCN1c2ccccc2Sc2ccccc21 [Promazine hydrochloride] have a reported filipin (z-score) of at least -0.5?
Response line: Condition met

Prompt line: Would you say CN1CCCN(C(c2ccccc2)c2ccc(Cl)cc2)CC1 (stereo not drawn) [Homochlorcyclizine dihydrochloride] shows filipin (z-score) at minimum -0.5?
Response line: Condition met

Prompt line: Could you please find out whether CCCN[C@H]1CCc2nc(N)sc2C1 [Pramipexole] has filipin (z-score) that meets -0.5 or exceeds it?
Response line: Condition met

Prompt line: Does the reported filipin (z-score) for O=C(CCCCC(=O)Nc1c(I)cc(I)c(C(=O)O)c1I)Nc1c(I)cc(I)c(C(=O)O)c1I [Iodipamide] fall at or above the -0.5 mark?
Response line: Condition met

Prompt line: Determine whether measured filipin (z-score) meets or exceeds -0.5 for Clc1ccc(CO/N=C(\Cn2ccnc2)c2ccc(Cl)cc2Cl)c(Cl)c1 [Oxiconazole Nitrate]
Response line: Condition met

Prompt line: // inclusive: filipin (z-score) at least -0.5? input: NS(=O)(=O)Cc1noc2ccccc12 [Zonisamide]
Response line: Condition met

Prompt line: Does the reported filipin (z-score) for CO[C@@]1(NC(=O)C2SC(=C(C(N)=O)C(=O)O)S2)C(=O)N2C(C(=O)O)=C(CSc3nnnn3C)CS[C@@H]21 (stereo partly drawn) [Cefotetan] fall at or above the -0.5 mark?
Response line: Condition not met

Prompt line: Item CN1CCC(OC(c2ccccc2)c2ccccc2)CC1 [Diphenylpyraline hydrochloride] with filipin (z-score) of -0.5 or above?
Response line: Condition met

###

Tested on: A431
Experiment: LBPA endosome anti-LBPA integrated intensity (sum per cell), Z-score; higher = more LBPA staining
Conditions: compound concentration in added solution (µM; 5 µl added to 20 µl cells): 10; 18 h
Rule: rule met for LBPA endosome anti-LBPA integrated intensity (z-score) not less than -0.6, rule not met for anything less.

Prompt line: Entry `Cc1c(Nc2ncccc2C(=O)O)cccc1C(F)(F)F` : is its LBPA endosome anti-LBPA integrated intensity (z-score) no less than -0.6?
Response line: rule met

Further cases:
Prompt line: Check this compound for LBPA endosome anti-LBPA integrated intensity (z-score) at or above -0.6: CCCNC(=O)NS(=O)(=O)c1ccc(Cl)cc1 [Chlorpropamide]
Response line: rule not met

Prompt line: Reported LBPA endosome anti-LBPA integrated intensity (z-score) at or above -0.6? NCC[C@H](O)C(=O)N[C@@H]1C[C@H](N)[C@@H](O[C@H]2O[C@H](CN)[C@@H](O)[C@H](O)[C@H]2O)[C@H](O)[C@H]1O[C@H]1O[C@H](CO)[C@@H](O)[C@H](N)[C@H]1O [Amikacin hydrate]
Response line: rule not met

###

Test system: A431
Test: filipin (cholesterol) integrated intensity within LBPA endosomes, Z-score; higher = more cholesterol in LBPA endosomes
Conditions: compound concentration in added solution (µM; 5 µl added to 20 µl cells): 10; 18 h
Counter-ions that a name gives are not always drawn.
Below is a list of entries, each paired with its recorded filipin (z-score) value.
# answer = number (no unit)

Worked set:
Prompt line: Please give the documented filipin (z-score) of NC12CC3CC(CC(C3)C1)C2 [Adamantamine fumarate]
Response line: -0.499

Prompt line: Read off the recorded filipin (z-score) for CO/N=C(\C(=O)N[C@@H]1C(=O)N2C(C(=O)O)=C(COC(N)=O)CS[C@H]12)c1ccco1 [Cefuroxime sodium salt]
Response line: -0.419

Prompt line: State, in one line, measured filipin (z-score) of CN(C)C/C=C(/c1ccc(Br)cc1)c1cccnc1 [Zimelidine dihydrochloride monohydrate]
Response line: 0.179

Prompt line: State its filipin (z-score): Cc1cccc(CN2CCN(C(c3ccccc3)c3ccc(Cl)cc3)CC2)c1 (centres undefined) [Meclozine dihydrochloride]
Response line: -0.233

Prompt line: Identify filipin (z-score) associated with the molecule CCOC(=O)n1ccn(C)c1=S [Carbimazole]
Response line: -0.513

Prompt line: Give the reported filipin (z-score) for this molecule. C[C@@H](O)[C@H]1C(=O)N2C(C(=O)O)=C(S[C@@H]3CN[C@H](C(=O)N(C)C)C3)[C@H](C)[C@H]12 [Meropenem]
Response line: -0.531

Prompt line: State its filipin (z-score): CN1CCCN=C1/C=C/c1cccc(O)c1 [Oxantel pamoate]
Response line: -0.5

Prompt line: Determine from records and report filipin (z-score) for Cn1c(=O)c2[nH]cnc2n(C)c1=O [Aminophylline]
Response line: -0.281

Next:
Prompt line: Quote filipin (z-score) reported for CCN(CC)CCNC(=O)c1cc(S(C)(=O)=O)ccc1OC [Tiapride hydrochloride] please.
Response line: -0.565

Prompt line: Provide measured filipin (z-score) value, entry: NC(=O)c1cc[n+](CC2=C(C(=O)[O-])N3C(=O)[C@@H](NC(=O)[C@@H](c4ccccc4)S(=O)(=O)O)[C@H]3SC2)cc1 [Cefsulodin sodium salt]
Response line: -0.357
